- Tested on: GENE-TOX genotoxicity assays, various organisms and cells
- protocol-details: GENE-TOX mutagenicity studies
- condition-set: Species/Cell Type: Chinese hamster ovary (CHO) cells; Assay Type: Forward gene mutation at the HPRT locus; Assay Code: CHO+*; Activation: With metabolic activation; Evaluation Type: Evaluation B (Post-1980)
Active and inactive are the calls of the source. No rule for the calls is given here.
attribute-measured: mutagenic call

compound=Cc1ccc2cc3c(ccc4ccccc43)c3c2c1CC3 study_target="GENE-TOX genotoxicity assays, various organisms and cells" test_value="active; positive"
compound=Cc1nc(N)cc2[nH]c3ccccc3c12 study_target="GENE-TOX genotoxicity assays, various organisms and cells" test_value="active; positive"
compound=CCN(CC)N=O study_target="GENE-TOX genotoxicity assays, various organisms and cells" test_value="active; positive"
compound=CC(=O)Nc1ccc2c(c1)Cc1ccccc1-2 study_target="GENE-TOX genotoxicity assays, various organisms and cells" test_value="active; positive"
compound=O=[N+]([O-])c1ccc2ccc3c4ccccc4cc4ccc1c2c43 study_target="GENE-TOX genotoxicity assays, various organisms and cells" test_value="active; positive"
compound=CN(C)N=O study_target="GENE-TOX genotoxicity assays, various organisms and cells" test_value="active; positive"
compound=CCCCN(CCCC)N=O study_target="GENE-TOX genotoxicity assays, various organisms and cells" test_value="active; positive"
compound=O=[N+]([O-])c1ccc2ccc3cc4ccccc4c4ccc1c2c34 study_target="GENE-TOX genotoxicity assays, various organisms and cells" test_value="active; positive"

Lookup: mutagenic call / GENE-TOX genotoxicity assays, various organisms and cells / c1ccc2c(c1)-c1cccc3cccc-2c13
active; positive

Next record, please: O=[N+]([O-])c1cc([N+](=O)[O-])c2ccc3cccc4ccc1c2c43
active; positive

Next record, please: O=P1(N(CCCl)CCCl)NCCCO1 (stereo unspecified)
active; positive

Value source: PubChem BioAssay AID1259408
